The measured values listed here are drawn from the supplement of paper PMC10065799.

target_or_system: MERTK (UniProt Q12866)
Sequence (Q12866 whole entry, looked up): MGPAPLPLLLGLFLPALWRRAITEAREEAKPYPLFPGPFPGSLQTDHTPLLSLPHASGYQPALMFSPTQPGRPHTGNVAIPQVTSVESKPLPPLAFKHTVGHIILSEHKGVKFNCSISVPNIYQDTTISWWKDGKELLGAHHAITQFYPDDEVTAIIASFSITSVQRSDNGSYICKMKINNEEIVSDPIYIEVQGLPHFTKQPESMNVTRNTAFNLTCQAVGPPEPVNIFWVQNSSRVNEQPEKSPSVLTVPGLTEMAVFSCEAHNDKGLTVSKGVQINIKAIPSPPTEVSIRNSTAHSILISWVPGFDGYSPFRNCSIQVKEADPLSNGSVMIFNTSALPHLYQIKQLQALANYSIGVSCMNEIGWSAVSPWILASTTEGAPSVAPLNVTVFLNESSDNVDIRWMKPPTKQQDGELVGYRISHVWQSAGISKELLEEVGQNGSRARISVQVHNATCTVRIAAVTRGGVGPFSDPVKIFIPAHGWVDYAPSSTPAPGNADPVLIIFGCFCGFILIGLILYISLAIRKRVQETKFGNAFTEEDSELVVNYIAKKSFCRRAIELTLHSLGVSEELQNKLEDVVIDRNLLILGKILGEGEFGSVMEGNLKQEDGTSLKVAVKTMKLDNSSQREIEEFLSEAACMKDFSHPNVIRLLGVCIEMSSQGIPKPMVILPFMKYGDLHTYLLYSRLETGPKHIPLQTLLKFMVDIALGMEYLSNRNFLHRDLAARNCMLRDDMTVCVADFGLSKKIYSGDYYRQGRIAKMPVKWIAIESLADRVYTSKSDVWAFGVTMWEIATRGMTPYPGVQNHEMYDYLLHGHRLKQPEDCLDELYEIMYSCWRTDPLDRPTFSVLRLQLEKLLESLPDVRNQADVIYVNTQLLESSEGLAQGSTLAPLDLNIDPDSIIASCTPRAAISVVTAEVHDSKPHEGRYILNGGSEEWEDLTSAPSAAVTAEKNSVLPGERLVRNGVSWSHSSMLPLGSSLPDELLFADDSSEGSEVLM
protocol: phosphorylation enrichment, bacterial display (enrichment ratio); higher = better substrate or ligand; peptides without Tyr show the background
measured_endpoint: phosphorylation enrichment
Keep the answer to the number alone.

| sequence_chain | phosphorylation enrichment |
| --- | --- |
| CKRQFYLYKGK [RSPO4_Y112] | 0.331 |
| RGRSTYYWPRP [GAGE12J_Y9] | 0.98 |
| KSVLVYRNGDP [DCDC2_Y22] | 0.355 |
| EEGESDVCSSD [DCX_Y125_Y125D] | 0.495 |
| NGLVACKDGKL [PMM2_Y76_Y76C] | 0.367 |
| YGPPQYNIQYS [ERBB2IP_Y977] | 0.602 |
| DVYVSYDYGKS [SORL1_Y139] | 4.1 |
| EVVGRYSVHFA [MLH1_Y183_N187Y_YF] | 0.448 |
| SSSGAYGGGFG [KRT19_Y61_YF] | 0.396 |
| PPSLSYLSFEG [EXOSC3_Y143_A139P] | 0.602 |

Give MERTK (UniProt Q12866) phosphorylation enrichment for RHSGSYFVTSV [APC_Y2838_L2839F]
0.676

Give MERTK (UniProt Q12866) phosphorylation enrichment for GSRGKYFSGFR [ATM_Y332_S333F]
0.481

Give MERTK (UniProt Q12866) phosphorylation enrichment for FFFDLYGGEKF [PTPN11_Y66_D61Y_YF]
0.371

Give MERTK (UniProt Q12866) phosphorylation enrichment for RPYSPYIIRGM [LRP5_Y1531_R1529S]
0.438

Give MERTK (UniProt Q12866) phosphorylation enrichment for SFMVRYNQPRV [GRIN2D_Y736_YF]
0.389

Give MERTK (UniProt Q12866) phosphorylation enrichment for LRYDSYSSYCN [SLC20A2_Y433]
1.38

Give MERTK (UniProt Q12866) phosphorylation enrichment for FVKEPYIQSRF [HIPK4_Y175_YF]
0.39

Give MERTK (UniProt Q12866) phosphorylation enrichment for IGEGTYRTVFK [CDK5_Y15_G16R]
0.384

* * *

target_or_system: EPHB2 (UniProt P29323)
Sequence (P29323 whole entry, looked up): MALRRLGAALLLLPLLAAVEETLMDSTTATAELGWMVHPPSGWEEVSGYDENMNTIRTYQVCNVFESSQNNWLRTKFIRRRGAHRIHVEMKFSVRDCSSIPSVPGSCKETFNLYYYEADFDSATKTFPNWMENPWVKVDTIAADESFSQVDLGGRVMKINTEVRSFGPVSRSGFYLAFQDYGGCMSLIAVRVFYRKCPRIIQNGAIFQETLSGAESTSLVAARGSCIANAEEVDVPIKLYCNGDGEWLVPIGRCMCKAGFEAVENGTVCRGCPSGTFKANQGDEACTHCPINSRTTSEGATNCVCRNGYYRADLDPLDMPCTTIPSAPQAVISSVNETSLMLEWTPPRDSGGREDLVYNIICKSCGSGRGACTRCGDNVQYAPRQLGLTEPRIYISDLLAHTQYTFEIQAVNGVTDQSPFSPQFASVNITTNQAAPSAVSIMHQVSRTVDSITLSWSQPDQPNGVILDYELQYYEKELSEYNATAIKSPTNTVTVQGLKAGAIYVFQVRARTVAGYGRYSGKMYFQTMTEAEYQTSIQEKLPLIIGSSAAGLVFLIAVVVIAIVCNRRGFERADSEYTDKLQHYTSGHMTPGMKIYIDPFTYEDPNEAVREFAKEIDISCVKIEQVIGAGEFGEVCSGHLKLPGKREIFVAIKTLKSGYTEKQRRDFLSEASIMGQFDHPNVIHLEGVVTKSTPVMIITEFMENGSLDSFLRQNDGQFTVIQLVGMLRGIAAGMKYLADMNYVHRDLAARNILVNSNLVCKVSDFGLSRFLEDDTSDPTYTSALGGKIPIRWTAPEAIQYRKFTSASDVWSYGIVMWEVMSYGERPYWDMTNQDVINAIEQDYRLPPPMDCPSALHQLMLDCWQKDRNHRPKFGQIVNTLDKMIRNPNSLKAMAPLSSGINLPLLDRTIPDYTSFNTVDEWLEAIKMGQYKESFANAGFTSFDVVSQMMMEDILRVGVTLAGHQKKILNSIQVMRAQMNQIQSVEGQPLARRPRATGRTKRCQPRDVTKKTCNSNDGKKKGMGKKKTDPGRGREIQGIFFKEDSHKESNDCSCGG
protocol: phosphorylation enrichment, bacterial display (enrichment ratio); higher = better substrate or ligand; peptides without Tyr show the background
measured_endpoint: phosphorylation enrichment
Keep the answer to the number alone.

Example sequences with recorded phosphorylation enrichment:
| sequence_chain | measured_endpoint | value |
| --- | --- | --- |
| ISRASYFRKGG [ALK_Y1282_Y1278S_YF] | phosphorylation enrichment | 0.37 |
| PGAGHYEDTIL [ALK_Y1604] | phosphorylation enrichment | 0.597 |
| DFPMGYPSFLA [TBCK_Y153_I151M_YF] | phosphorylation enrichment | 0.469 |

Fill in: phosphorylation enrichment of RHPLDYLRQYP [NARS2_Y138_E137D] is ___
0.96

Fill in: phosphorylation enrichment of NFRNTYVNANE [KCNH2_Y475_T473N] is ___
0.395

Fill in: phosphorylation enrichment of ALECLYHREKR [TEKT5_Y195] is ___
0.675

Fill in: phosphorylation enrichment of EMTAEYTCTRK [ACAD9_Y325_A326T] is ___
0.607

* * *

target_or_system: Grb2 SH2 (UniProt P62993)
Sequence (P62993 whole entry, looked up): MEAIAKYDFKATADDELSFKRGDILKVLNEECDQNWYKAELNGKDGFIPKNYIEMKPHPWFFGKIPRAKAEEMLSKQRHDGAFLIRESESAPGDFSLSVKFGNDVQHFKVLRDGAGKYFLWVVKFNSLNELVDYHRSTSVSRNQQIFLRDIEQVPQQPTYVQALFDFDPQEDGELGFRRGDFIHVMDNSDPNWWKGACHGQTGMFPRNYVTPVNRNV
protocol: SH2 binding enrichment of the phosphorylated peptide, bacterial display (enrichment ratio); higher = better substrate or ligand; peptides without Tyr show the background
measured_endpoint: SH2 binding enrichment
Keep the answer to the number alone.

| sequence_chain | value |
| --- | --- |
| ADRNHYRRFRR [YBX1_Y145_P149R_YF] | 0.669 |
| SKKVRYVVSKA [BARD1_Y156] | 1.38 |
| PATINYPFEKG [NDUFS8_Y84] | 1.09 |
| ADDSYYTARSA [ZAP70_Y493] | 0.861 |
| SRGHQYQELPR [KCNH2_Y1009_R1007H] | 1.04 |

Give Grb2 SH2 (UniProt P62993) SH2 binding enrichment for PGQRVYVVAES [SHH_Y316_R321S]
0.756

Give Grb2 SH2 (UniProt P62993) SH2 binding enrichment for YPPDGYSRHYE [CTNND1_Y213]
0.911

Give Grb2 SH2 (UniProt P62993) SH2 binding enrichment for FRQNGYIPGSN [PCDHGA1_Y895_V894G_YF]
0.807

Give Grb2 SH2 (UniProt P62993) SH2 binding enrichment for LTTEVYFPSIK [C5orf64_Y60_A57T]
0.911

Give Grb2 SH2 (UniProt P62993) SH2 binding enrichment for ALVFLSFCIIF [SIGLEC12_Y494_Y494S]
1.85

Give Grb2 SH2 (UniProt P62993) SH2 binding enrichment for SEELHYFVQNH [UQCRC2_Y207]
0.806

* * *

Each entry below carries its recorded phosphorylation enrichment.
target_or_system: MERTK (UniProt Q12866)
protocol: phosphorylation enrichment, bacterial display (enrichment ratio); higher = better substrate or ligand; peptides without Tyr show the background

Fill in: phosphorylation enrichment of LAIELYVVVCK [RHO_Y136_R135L] is ___
0.597

Fill in: phosphorylation enrichment of HHIDYYKETTN [FGFR1_Y654_K656E] is ___
0.866

Fill in: phosphorylation enrichment of KPGVNYYFQVS is ___
0.873

* * *

Each entry below carries its recorded phosphorylation enrichment.
System: c-Src
protocol: phosphorylation enrichment, bacterial display (enrichment ratio); higher = better substrate or ligand; peptides without Tyr show the background
Keep the answer to the number alone.

| sequence_chain | phosphorylation enrichment |
| --- | --- |
| NQELIYEGQRL [TBK1_Y354_R357Q] | 6.85 |
| IRQGHYESLKE [MTR_Y921_D919G] | 0.45 |
| FLGEEYVKAVG [TF_Y674_YF] | 0.404 |
| INMKKYCKKDY [NTN1_Y490] | 0.401 |
| EKKKKYMLPLD [DNM2_Y563_E560K] | 0.496 |

Fill in: phosphorylation enrichment of QRVLLYVRRET [GRHL3_Y518] is ___
0.834

Fill in: phosphorylation enrichment of KPRKPYTIKKP [BRD2_Y715] is ___
0.75

Fill in: phosphorylation enrichment of PTTKTYFPHFA [HBA1_Y43_D48A] is ___
0.781

Fill in: phosphorylation enrichment of ADMETYLLEKS [MYH7_Y266_I263M] is ___
0.869

Fill in: phosphorylation enrichment of SEVVPYEPPEV [TP53_Y220_V216E] is ___
0.529

* * *

target_or_system: FGFR3 (UniProt P22607)
Sequence (P22607 whole entry, looked up): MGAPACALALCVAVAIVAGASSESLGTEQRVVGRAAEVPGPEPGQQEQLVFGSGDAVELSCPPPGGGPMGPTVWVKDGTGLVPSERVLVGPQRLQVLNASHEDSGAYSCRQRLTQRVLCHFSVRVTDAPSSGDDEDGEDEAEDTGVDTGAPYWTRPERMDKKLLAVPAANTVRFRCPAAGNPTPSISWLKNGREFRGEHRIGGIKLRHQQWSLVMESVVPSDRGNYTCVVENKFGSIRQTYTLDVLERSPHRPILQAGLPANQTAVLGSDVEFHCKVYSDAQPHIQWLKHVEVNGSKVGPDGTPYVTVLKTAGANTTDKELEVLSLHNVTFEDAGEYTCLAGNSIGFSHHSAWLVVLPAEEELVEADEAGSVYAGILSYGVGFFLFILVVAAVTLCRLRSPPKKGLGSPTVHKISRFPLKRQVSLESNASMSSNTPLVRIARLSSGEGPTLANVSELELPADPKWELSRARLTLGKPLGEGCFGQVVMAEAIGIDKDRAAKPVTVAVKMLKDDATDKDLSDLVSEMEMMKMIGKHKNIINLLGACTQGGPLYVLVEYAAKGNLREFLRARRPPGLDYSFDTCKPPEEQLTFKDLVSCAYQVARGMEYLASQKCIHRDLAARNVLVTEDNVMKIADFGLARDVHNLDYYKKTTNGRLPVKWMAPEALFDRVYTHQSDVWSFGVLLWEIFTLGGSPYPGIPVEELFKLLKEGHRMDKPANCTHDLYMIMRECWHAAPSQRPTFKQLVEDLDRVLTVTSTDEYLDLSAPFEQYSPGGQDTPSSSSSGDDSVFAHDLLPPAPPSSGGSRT
protocol: phosphorylation enrichment, bacterial display (enrichment ratio); higher = better substrate or ligand; peptides without Tyr show the background
Label class 1 when phosphorylation enrichment is at or above 0.7; anything below gets class 0.

Completed entries (count: 5):
| sequence_chain | label_class |
| --- | --- |
| PEVSGYCHCAD [TG_Y234] | class 1 |
| YPPDGYSRHYE [CTNND1_Y213] | class 0 |
| PATINYPFEKG [NDUFS8_Y84] | class 0 |
| FTNRNYDLDYD [MYC_Y12] | class 0 |
| PPSELYFVKVD [TERT_Y707_P704S] | class 1 |

Does phosphorylation enrichment meet or surpass 0.7 for PGQRVYVVAES [SHH_Y316_R321S] ?
class 1

Does phosphorylation enrichment meet or surpass 0.7 for LSGVIYVILRK [PMP22_Y153] ?
class 1

Does phosphorylation enrichment meet or surpass 0.7 for ADDSYYTARSA [ZAP70_Y493] ?
class 1

Does phosphorylation enrichment meet or surpass 0.7 for ISSLPYMKMIF [SLC4A11_Y853_M848I] ?
class 0

Does phosphorylation enrichment meet or surpass 0.7 for TYGVLYKARNK [CDK2_Y19_V18L] ?
class 0

Does phosphorylation enrichment meet or surpass 0.7 for EVVGRYSVHFA [MLH1_Y183_N187Y_YF] ?
class 0

* * *

Each entry below carries its recorded phosphorylation enrichment.
target_or_system: Hck (UniProt P08631)
Sequence (P08631 whole entry, looked up): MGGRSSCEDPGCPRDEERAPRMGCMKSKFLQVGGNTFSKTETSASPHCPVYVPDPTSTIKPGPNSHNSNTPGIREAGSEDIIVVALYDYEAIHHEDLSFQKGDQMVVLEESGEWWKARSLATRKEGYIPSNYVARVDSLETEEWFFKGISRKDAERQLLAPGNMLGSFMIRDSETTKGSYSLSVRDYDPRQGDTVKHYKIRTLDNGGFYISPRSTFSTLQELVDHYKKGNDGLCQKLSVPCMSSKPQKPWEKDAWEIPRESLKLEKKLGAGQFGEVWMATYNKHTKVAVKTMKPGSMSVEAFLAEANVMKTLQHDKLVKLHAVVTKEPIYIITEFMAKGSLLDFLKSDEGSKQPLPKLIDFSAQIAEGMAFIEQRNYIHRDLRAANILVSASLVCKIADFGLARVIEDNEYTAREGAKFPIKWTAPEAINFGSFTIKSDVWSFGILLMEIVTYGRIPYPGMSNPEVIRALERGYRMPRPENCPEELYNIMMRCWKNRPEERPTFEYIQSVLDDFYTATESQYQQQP
protocol: phosphorylation enrichment, bacterial display (enrichment ratio); higher = better substrate or ligand; peptides without Tyr show the background
Keep the answer to the number alone.

| sequence_chain | value |
| --- | --- |
| KVGRVYLFLQP [ITGA2B_Y360_E355K] | 0.462 |
| QRRYLYYYSYL [PTEN_Y176_V175L] | 2.2 |
| SHGKRYRVPSD [HHIPL2_Y395] | 0.274 |
| VNTMLYEKFTF [TEK_Y1108_T1106M_YF] | 6.73 |
| KVKPIYLHTQG [AR_Y916_F917L] | 0.39 |

Fill in: phosphorylation enrichment of GGDVIYKGFED [NFU1_Y194] is ___
0.951
